Assay: chemical genetic growth profiling, strain panel (AID 1159580);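 note: tested at 20 µM; growth read once vehicle control cultures reached saturation at 30 °C; 1 = growth at the plate median or of vehicle wells; lower values mean less growth of the strain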
Details: S. cerevisiae deletion strains, growth OD, locus YOL147C, strain pex11
The whole screen tested about 5,500 compounds, of which about 2,000 (36%) were called active. Another 18% or so got no clear call; they are omitted. Cut-off read from the data, not from the text of the source: active = normalized growth mostly below about 0.91 (no sharp cut-off); inconclusive = no clear call, values can overlap the other calls; inactive = mostly above about 0.92. This is one part of the list.
Classes used: 1 (yes) for active, 0 (no) for inactive

                                    compound  discrete_label
 0  COC(=O)C[C@H]1C(C)(C)C(=O)[C@@H]2CC3=C(CC[C@]4(C)C3=CC(=O)O[C@H]4c3ccoc3)[C@@]1(C)C2=O          0 (no)
 1                       COC(=O)C1=CCCN(C)C1          0 (no)
 2               Cc1cccc(Nc2ccccc2C(=O)O)c1C         1 (yes)
 3  C=C1CCC(C2CC(=O)OC2=O)C(=O)CCC2C1CC2(C)C (stereo unspecified)          0 (no)
 4               Oc1ccc(Cl)cc1Cc1cc(Cl)ccc1O         1 (yes)
 5                  CC(=O)Oc1c(C)cccc1C(=O)O          0 (no)
 6                         NC(=O)c1cccc(N)c1          0 (no)
 7                             Oc1ccc(Cl)cc1          0 (no)
 8                        Cc1cccc(C(=O)O)c1O          0 (no)
 9  COc1cc([C@@H]2c3cc4c(c(O)c3C[C@H]3COC(=O)[C@@H]32)OCO4)cc(OC)c1OC          0 (no)
10  COc1ccc2c(c1)CCC(c1ccccc1)=C2c1ccc(OCCN2CCCC2)cc1         1 (yes)
11  NS(=O)(=O)c1cc2c(cc1Cl)NC(C(Cl)Cl)NS2(=O)=O (stereo unspecified)          0 (no)
12           CC(C)NC[C@H](O)COc1cccc2ccccc12          0 (no)
13  C=C1CCC2C(CC2(C)C)C(=C)CC/C1=N\O (stereo unspecified)          0 (no)
14  C=C1CCC(=O)C(C)CCC2C1CC2(C)C (stereo unspecified)          0 (no)
15  C=C1C(=O)O[C@@H]2C[C@@]3(C)CCC[C@H](C)C3=C[C@H]12         1 (yes)
16  C=C1CCC2C(CC2(C)C)C(=O)CCC1O (stereo unspecified)          0 (no)
17                  CCNC(=O)CC[C@H](N)C(=O)O          0 (no)
18  C=C1C(=O)OC2CC1C(OC(C)=O)C/C(C)=C/CC/C(C)=C/CC[C@]2(C)O (stereo partly specified)          0 (no)
19  Oc1ccc2c(c1)OCC1c3cc4c(cc3OC21)OCO4 (stereo unspecified)          0 (no)
20  CCCCN1CCCCC1C(=O)Nc1c(C)cccc1C (stereo unspecified)          0 (no)
21                               OCc1ccccc1O          0 (no)
22  Nc1ccn(C2O[C@H](CO)[C@@H](O)[C@@H]2O)c(=O)n1 (stereo partly specified)          0 (no)
23  COc1ccc2c(c1)O[C@H]1c3ccc(OC)cc3OC[C@@H]21         1 (yes)
24      CC1OC1P(=O)(O)O (stereo unspecified)          0 (no)
25  COc1ccc2c(c1OC)C(=O)OC2[C@H]1c2c(cc3c(c2OC)OCO3)CCN1C (stereo partly specified)          0 (no)

====

Experiment: chemical genetic growth profiling, strain panel (AID 1159580);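 note: tested at 20 µM; growth read once vehicle control cultures reached saturation at 30 °C; 1 = growth at the plate median or of vehicle wells; lower values mean less growth of the strain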
Details: S. cerevisiae deletion strains, growth OD, locus YNL298W, strain CLA4, active compounds read low
The campaign covered roughly 5,500 compounds. About 2,000 (36%) were called active. Not shown: some 18% with an inconclusive outcome. This is one part of the list.
measure: normalized growth

                                    molecule  data_value
 0                Cn1c(=O)c2[nH]cnc2n(C)c1=O       0.965
 1  C=C1C(=O)O[C@@H]2C3O[C@]3(C)CC/C=C(\C)CC[C@@H]12 (stereo partly specified)       0.878
 2  CC1(C)OC(=O)C=CC2(C)C1CC(O)C1(C)C2CCC2(C)C(c3ccoc3)OC(=O)C3OC321 (stereo unspecified)        1.04
 3  CC1(C)NC(=O)N(c2ccc([N+](=O)[O-])c(C(F)(F)F)c2)C1=O       0.975
 4                         NC(=O)c1cccc(N)c1        1.01
 5  CC(C)NCC(O)c1cc(O)cc(O)c1 (stereo unspecified)       0.975
 6         CCCCOC(=O)c1ccccc1C(=O)OCc1ccccc1       0.949
 7  C=CCCCCCCCCCCCC(O)CC(O)COC(C)=O (stereo unspecified) (tested in a mixture with another compound)       0.824
 8  CO/N=C(\C(=O)NC1C(=O)N2C(C(=O)O)=C(COC(N)=O)CSC12)c1ccco1 (stereo unspecified)       0.235
 9                     CCCCOC(=O)c1ccc(N)cc1       0.939
10  CC1(C)O[C@@H]2CC3C4CCC5=CC(=O)CCC5(C)C4(F)C(O)CC3(C)[C@]2(C(=O)CCl)O1 (stereo partly specified)       0.994
11  O=C(O)CN(CC(=O)O)Cc1cc2c(-c3ccccc3C(=O)O)c3cc(CN(CC(=O)O)CC(=O)O)c(=O)cc-3oc2cc1O        1.04
12  C#CCCCCCCCCCCCC(=O)CC(O)COC(C)=O (stereo unspecified)       0.898
13  COc1ccc2c(c1)CCC(c1ccccc1)=C2c1ccc(OCCN2CCCC2)cc1       0.957
14  C=C1CCC(C2CC(=O)OC2=O)C(=O)CCC2C1CC2(C)C (stereo unspecified)       0.993
15  O=C(C1CCCCC1)N1CC(=O)N2CCc3ccccc3C2C1 (stereo unspecified)        1.01
16  NC(CO)C(=O)NNCc1ccc(O)c(O)c1O (stereo unspecified)       0.988
17           CC(C)[C@@H]1CC[C@@H](C)C[C@H]1O        1.02
18  C=C1CCC2C(CC2(C)C)C(=O)CCC1O (stereo unspecified)        1.03
19  CCOC(=O)[C@H](CCc1ccccc1)N[C@@H](C)C(=O)N1[C@H](C(=O)O)C[C@@H]2CCC[C@@H]21        1.03
20  CC(C)C(C)/C=C/C(C)C1CCC2C3=CC=C4CC(O)CCC4(C)C3CCC21C (stereo unspecified)       0.977
21                      CC(C)NNC(=O)c1ccncc1        1.01
22  C=C1C(=O)OC2CC1C(OC(C)=O)C/C(C)=C/CC/C(C)=C/CC[C@]2(C)O (stereo partly specified)        1.01
23  CC(C)COCC(CN(Cc1ccccc1)c1ccccc1)N1CCCC1 (stereo unspecified)       0.994
24  COC(=O)C(O)c1ccccc1 (stereo unspecified)       0.989
25  NS(=O)(=O)c1cc2c(cc1Cl)NC(C(Cl)Cl)NS2(=O)=O (stereo unspecified)        1.01
26  C=C1CCC(=O)C(C)CCC2C1CC2(C)C (stereo unspecified)        1.03
27                  CCNC(=O)CC[C@H](N)C(=O)O       0.995
28              CCCCNc1ccc(C(=O)OCCN(C)C)cc1        1.02
29  C=CCSCC1Nc2cc(Cl)c(S(N)(=O)=O)cc2S(=O)(=O)N1 (stereo unspecified)        1.04
30      CC1OC1P(=O)(O)O (stereo unspecified)       0.994
31  Cc1cc(NC(=O)C2=C(O)c3ccccc3S(=O)(=O)N2C)no1       0.923
32  C=C1C(C)C2C(Cc3ccccc3)NC(=O)C23OC(=O)/C=C/C(=O)CCCC(C)C/C=C/C3C1O (stereo unspecified)       0.896
33                     CCCCCCOc1ccccc1C(N)=O       0.778
34                CC(=O)OCC[C@H](C)CCC=C(C)C        1.05
35             COc1c(OC)c2occc2c2oc(=O)ccc12        0.95
36  O=C1OC(c2ccc(O)cc2)(c2ccc(O)cc2)c2ccccc21        0.99
37        O=C(O)CN1C(=O)c2cccc3cccc(c23)C1=O       0.984
38  O=C1[C@H](CCC(O)c2ccc(F)cc2)[C@@H](c2ccc(O)cc2)N1c1ccc(F)cc1 (stereo partly specified)       0.961
39  CC1(C)C2(Cl)C(Cl)C(Cl)C(Cl)(C(Cl)Cl)C1(Cl)C2Cl (stereo unspecified)       0.971
40  COc1cc(-c2coc3cc(OC)c(OC)c(OC)c3c2=O)cc(OC)c1OC       0.996
41  CO/N=C(\C(=O)N[C@@H]1C(=O)N2C(C(=O)O)=C(COC(C)=O)CS[C@H]12)c1csc(N)n1       0.989
42  C[N+]1(C)C2CC(OC(=O)[C@@H](CO)c3ccccc3)CC1C1OC12 (stereo partly specified)        1.02
43                CCN(CC)CCOC(=O)c1ccc(N)cc1        0.99
44                 Nc1ccc(N=Nc2ccccc2)c(N)n1       0.928
45  CO/N=C(\C(=O)N[C@@H]1C(=O)N2C(C(=O)O)=C(CSc3nc(=O)c(O)nn3C)CS[C@H]12)c1csc(N)n1       0.969
